Experiment: in vivo
Conditions: female, New Zealand white, rabbit, in vivo, iv, Serum concentration
Consider the following molecules; for each one, report its concentration at 168 h.
Numbers only, in nM.

ClC(Cl)=C(c1ccc(Cl)cc1)c1ccc(Cl)cc1 19

Now for the molecule whose concentration at 168 h we want.
Return reported concentration at 168 h; argument: "Clc1c(Cl)c(Cl)c(Cl)c(Cl)c1Cl" 5.2

====

Exercise: state measured concentration at 71.97 h for each of the molecules provided.
Assay: TK assay, intravenous mixture dosing: serum concentrations and noncompartmental analysis (sparse data)
Details: female, New Zealand white, rabbit, in vivo, iv, Serum concentration, rabbit 6, 71.97 h
One number for each entry, in nM.

Record excerpt, results attached:
O=C(O)C(F)(F)C(F)(F)C(F)(F)C(F)(F)C(F)(F)C(F)(F)C(F)(F)F 31
Cl[C@H]1[C@H](Cl)[C@@H](Cl)[C@H](Cl)[C@@H](Cl)[C@@H]1Cl 29

Okay, next one:
Recorded concentration at 71.97 h for "Brc1ccc(Oc2ccc(Br)cc2Br)c(Br)c1" , please? 42

====

Assay: TK assay, oral mixture dosing: serum concentrations and noncompartmental analysis (sparse data)
Settings: female, New Zealand white, rabbit, in vivo, po, Serum concentration, oral, rabbit 20, 12.00 h; MEHP after oral DEHP
attributeMeasured: concentration at 12 h (µM)
Give bare numbers, in µM.

I have this compound here, "O=C(O)C(F)(F)C(F)(F)C(F)(F)C(F)(F)C(F)(F)C(F)(F)C(F)(F)F" , and I need its recorded concentration at 12 h. 3.2

====

Assign bioavailability to each entry below.
Assay: Nonlinear mixed effect (NLME) compartmental modeling of merged IV and oral serum concentrations
Settings: female, New Zealand white (INRA 1777 line), rabbit, in vivo, po, Oral bioavailability (F), NLME model
Experimental: A nonlinear mixed effect (NLME) modeling approach was used to analyze simultaneously all data obtained from the different rabbits after both IV and oral administrations and to provide robust estimates of the typical TK parameters. […] Secondary parameters were calculated from the population primary parameters. […]

These solved cases illustrate the format of a correct answer.
O=C(O)C(F)(F)C(F)(F)C(F)(F)C(F)(F)C(F)(F)C(F)(F)C(F)(F)F 100%
Cl[C@H]1[C@H](Cl)[C@@H](Cl)[C@H](Cl)[C@@H](Cl)[C@@H]1Cl > 85%

If you can, please state the reported bioavailability value of "Brc1ccc(Oc2ccc(Br)cc2Br)c(Br)c1" . > 85%

====

Assay: Nonlinear mixed effect (NLME) compartmental modeling of merged IV and oral serum concentrations
Conditions: female, New Zealand white (INRA 1777 line), rabbit, in vivo
attributeMeasured: Vd
Units required after the number.

Example entries begin here.
compound	Vd
Brc1ccc(Oc2ccc(Br)cc2Br)c(Br)c1 [BDE-47, 2,2′,4,4′-tetrabromodiphenyl ether]	45 L/kg
ClC(Cl)=C(c1ccc(Cl)cc1)c1ccc(Cl)cc1 [pp′DDE]	35 L/kg
Clc1c(Cl)c(Cl)c(Cl)c(Cl)c1Cl [HCB, hexachlorobenzene]	35 L/kg
Cl[C@H]1[C@H](Cl)[C@@H](Cl)[C@H](Cl)[C@@H](Cl)[C@@H]1Cl [β-HCH, β-hexachlorocyclohexane]	33 L/kg

Attention now shifts to the item below.
What measured Vd goes with O=C(O)C(F)(F)C(F)(F)C(F)(F)C(F)(F)C(F)(F)C(F)(F)C(F)(F)F [PFOA, perfluorooctanoic acid] ? 0.19 L/kg

====

Assay: TK assay, intravenous mixture dosing: serum concentrations and noncompartmental analysis (sparse data)
Details: IV mixture dosing, NCA, n=12
attributeMeasured: MRT (h)
Numbers only, in h.

Study these solved cases before continuing.
compound	attributeMeasured	observed
O=C(O)[C@H]1O[C@@H](Oc2ccc(S(=O)(=O)c3ccc(O)cc3)cc2)[C@H](O)[C@@H](O)[C@@H]1O [BPSG, bisphenol S glucuronide]	MRT	3.16
O=S(=O)(O)C(F)(F)C(F)(F)C(F)(F)C(F)(F)C(F)(F)C(F)(F)C(F)(F)C(F)(F)F	MRT	971
CCCCC(CC)COC(=O)c1ccccc1C(=O)O (stereo not shown) [MEHP, mono(2-ethylhexyl)phthalate]	MRT	16.3

Next compound, please.
Please report the recorded MRT for "O=S(=O)(c1ccc(O)cc1)c1ccc(O)cc1" . 1.26

====

Test: in vivo
Details: female, New Zealand white, rabbit, in vivo, po, Serum concentration
attributeMeasured: concentration at 168 h (nM)
Give bare numbers, in nM.

compound	concentration at 168 h (nM)
Clc1c(Cl)c(Cl)c(Cl)c(Cl)c1Cl [HCB, hexachlorobenzene]	240

# get_value(readout='concentration at 168 h', item= ClC(Cl)=C(c1ccc(Cl)cc1)c1ccc(Cl)cc1 [pp′DDE] ) 110

====

For each entry below, report its concentration at 72 h value.
Experiment: TK assay, oral mixture dosing: serum concentrations and noncompartmental analysis (sparse data)
Conditions: female, New Zealand white, rabbit, in vivo, po, Serum concentration, oral, rabbit 17, 72.00 h; MEHP after oral DEHP

molecule	concentration at 72 h
Cl[C@H]1[C@H](Cl)[C@@H](Cl)[C@H](Cl)[C@@H](Cl)[C@@H]1Cl [β-HCH, β-hexachlorocyclohexane]	160 nM
O=C(O)C(F)(F)C(F)(F)C(F)(F)C(F)(F)C(F)(F)C(F)(F)C(F)(F)F [PFOA, perfluorooctanoic acid]	230 nM

Switching to the query record.
Record request: concentration at 72 h value, item Brc1ccc(Oc2ccc(Br)cc2Br)c(Br)c1 [BDE-47, 2,2′,4,4′-tetrabromodiphenyl ether] 210 nM

====

Assay: in vivo
Conditions: female, New Zealand white, rabbit, in vivo, iv, Serum concentration
attributeMeasured: concentration at 72 h (nM)
One number for each entry, in nM.

Clc1c(Cl)c(Cl)c(Cl)c(Cl)c1Cl 5.8

May I ask what concentration at 72 h has been recorded for "ClC(Cl)=C(c1ccc(Cl)cc1)c1ccc(Cl)cc1" ? 26

====

Give concentration at 672.02 h for every item shown.
Experiment: TK assay, oral mixture dosing: serum concentrations and noncompartmental analysis (sparse data)
Details: female, New Zealand white (INRA 1777 line), rabbit, in vivo, po, Serum concentration, rabbit 24, 672.02 h
The reply should consist of the numeric value with the unit placed after it.

Look over these answered cases.
compound	concentration at 672.02 h
Brc1ccc(Oc2ccc(Br)cc2Br)c(Br)c1 [BDE-47, 2,2′,4,4′-tetrabromodiphenyl ether]	30 nM
Cl[C@H]1[C@H](Cl)[C@@H](Cl)[C@H](Cl)[C@@H](Cl)[C@@H]1Cl [β-HCH, β-hexachlorocyclohexane]	43 nM

Next compound, please.
Tell me the measured concentration at 672.02 h of O=C(O)C(F)(F)C(F)(F)C(F)(F)C(F)(F)C(F)(F)C(F)(F)C(F)(F)F [PFOA, perfluorooctanoic acid] , please. 0.49 nM

====

Test: in vivo
Settings: female, New Zealand white (INRA 1777 line), rabbit, in vivo, po
Threshold check on concentration at 17 wk: strictly below 20 ng/mL is yes; on or above 20 ng/mL is no.

Solved cases (3 shown):
Clc1c(Cl)c(Cl)c(Cl)c(Cl)c1Cl yes
O=C(O)C(F)(F)C(F)(F)C(F)(F)C(F)(F)C(F)(F)C(F)(F)C(F)(F)F no
Brc1ccc(Oc2ccc(Br)cc2Br)c(Br)c1 yes

Does the reported concentration at 17 wk of the following molecule sit strictly below 20 ng/mL? "ClC(Cl)=C(c1ccc(Cl)cc1)c1ccc(Cl)cc1" no

What do we get for "Cl[C@H]1[C@H](Cl)[C@@H](Cl)[C@H](Cl)[C@@H](Cl)[C@@H]1Cl" ? yes

====

Experiment: in vivo
Conditions: female, New Zealand white (INRA 1777 line), rabbit, in vivo, po, Serum concentration
attributeMeasured: concentration at 672.02 h (nM)
Answers are plain numbers, in nM.

Which concentration at 672.02 h reading was recorded for the compound "ClC(Cl)=C(c1ccc(Cl)cc1)c1ccc(Cl)cc1" ? 31

====

Assay: TK assay, intravenous mixture dosing: serum concentrations and noncompartmental analysis (sparse data)
Settings: female, New Zealand white, rabbit, in vivo, iv, Serum concentration, rabbit 1, 0.30 h
attributeMeasured: concentration at 0.3 h (nM)
Numbers only, in nM.

Would you mind telling me what concentration at 0.3 h value was observed for O=C(O)C(F)(F)C(F)(F)C(F)(F)C(F)(F)C(F)(F)C(F)(F)C(F)(F)F [PFOA, perfluorooctanoic acid] ? 1870

====

Kindly supply the reported tvK12 (distribution rate constant) values for the records listed here.
Test: Nonlinear mixed effect (NLME) compartmental modeling of merged IV and oral serum concentrations
Conditions: population primary parameter, typical value, mean
Give bare numbers, in h⁻¹.

In the examples that follow, each entry is paired with its recorded tvK12 (distribution rate constant).
compound	unitAbbreviation	tvK12 (distribution rate constant)
Clc1c(Cl)c(Cl)c(Cl)c(Cl)c1Cl [HCB, hexachlorobenzene]	h⁻¹	0.05299
O=C(O)C(F)(F)C(F)(F)C(F)(F)C(F)(F)C(F)(F)C(F)(F)C(F)(F)F [PFOA, perfluorooctanoic acid]	h⁻¹	0.047
CCCCC(CC)COC(=O)c1ccccc1C(=O)O (stereo not shown) [MEHP, mono(2-ethylhexyl)phthalate]	h⁻¹	0.285
O=S(=O)(O)C(F)(F)C(F)(F)C(F)(F)C(F)(F)C(F)(F)C(F)(F)C(F)(F)C(F)(F)F [nPFOS]	h⁻¹	0.153
ClC(Cl)=C(c1ccc(Cl)cc1)c1ccc(Cl)cc1 [pp′DDE]	h⁻¹	0.08353
Brc1ccc(Oc2ccc(Br)cc2Br)c(Br)c1 [BDE-47, 2,2′,4,4′-tetrabromodiphenyl ether]	h⁻¹	0.0697

Then this compound:
Can you share its tvK12 (distribution rate constant)? I mean this compound: Cl[C@H]1[C@H](Cl)[C@@H](Cl)[C@H](Cl)[C@@H](Cl)[C@@H]1Cl [β-HCH, β-hexachlorocyclohexane] 0.0593
